molecular target: Human M4 (Homo sapiens, UniProt P08173); construct: expressed in transfected cells; host or cells: CHO-K1 (ATCC), stably expressing hM4 and Gqi5; experiment: mAChR M4 cell-based functional assay (calcium flux, potentiation of EC20 acetylcholine response in CHO-K1 hM4-Gqi5 cells); conditions: CHO-K1; % ACh maximum at 30 μM; human M4
Sequence (P08173 whole entry): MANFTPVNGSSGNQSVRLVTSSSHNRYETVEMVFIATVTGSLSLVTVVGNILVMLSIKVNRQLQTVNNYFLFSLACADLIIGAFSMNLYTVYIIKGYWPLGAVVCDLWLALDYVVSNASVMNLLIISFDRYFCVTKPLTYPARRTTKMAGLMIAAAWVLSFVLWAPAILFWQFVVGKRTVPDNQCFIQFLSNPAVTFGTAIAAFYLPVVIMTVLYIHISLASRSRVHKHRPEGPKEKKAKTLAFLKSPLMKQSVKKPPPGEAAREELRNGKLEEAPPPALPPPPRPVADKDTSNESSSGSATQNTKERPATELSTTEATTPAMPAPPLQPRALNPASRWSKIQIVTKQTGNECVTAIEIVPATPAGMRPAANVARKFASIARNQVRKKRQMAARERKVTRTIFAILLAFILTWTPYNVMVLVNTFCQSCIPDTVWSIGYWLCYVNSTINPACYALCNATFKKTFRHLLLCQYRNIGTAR
measured_quantity: Emax at 30 µM (%)
Report the value in % with no unit label.

Below, each entry is followed by its recorded Emax at 30 µM result.
| compound | u | Emax at 30 µM |
| --- | --- | --- |
| Cc1nnc2ccc(C(=O)NC3CC(F)C3)cc2c1C (stereo not drawn) [Compound 40] | % | 59.3 |
| Cc1nnc2ccc(C(=O)NC3CN(c4ncc(F)cn4)C3)cc2c1C [Compound 19] | % | 75.4 |
| Cc1nnc2ccc(C(=O)NC3CN(c4ccc(F)cn4)C3)cc2c1C [Compound 24] | % | 79.2 |
| Cc1nnc2ccc(C(=O)NC3CN(c4ncc(C5CC5)cc4Cl)C3)cc2c1C [Compound 27] | % | 77.2 |
| Cc1nnc2ccc(C(=O)NC3CN(c4cnc(C5CC5)cn4)C3)cc2c1C [Compound 22] | % | 79.9 |

Emax at 30 µM for Human M4 (Homo sapiens, UniProt P08173) with input Cc1nnc2ccc(C(=O)NC3CN(c4cccc(Cl)n4)C3)cc2c1C [Compound 32] equals 77.2

Emax at 30 µM for Human M4 (Homo sapiens, UniProt P08173) with input Cc1nnc2ccc(C(=O)NC3CN(c4ncc(OC(C)C)cn4)C3)cc2c1C [Compound 20] equals 87.8

Emax at 30 µM for Human M4 (Homo sapiens, UniProt P08173) with input Cc1cc(C)c2cc(C(=O)NCc3ccncc3)ccc2n1 [Compound 6] equals 26.4

Emax at 30 µM for Human M4 (Homo sapiens, UniProt P08173) with input Cc1nnc2ccc(C(=O)NC3CN(c4cnc(C(F)(F)F)cn4)C3)cc2c1C [Compound 21] equals 77.8
